Numbers sourced from ChEMBL document CHEMBL5528082.

Target sequence: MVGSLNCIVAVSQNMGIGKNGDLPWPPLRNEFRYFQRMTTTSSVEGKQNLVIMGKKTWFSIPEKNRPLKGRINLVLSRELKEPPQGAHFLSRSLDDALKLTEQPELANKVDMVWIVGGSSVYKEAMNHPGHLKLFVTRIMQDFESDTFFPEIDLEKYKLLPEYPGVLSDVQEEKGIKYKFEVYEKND
ASSAY_ENDPOINT: IC50 (µM)
Give just the number in µM; leave the unit off.

The examples below pair each entry with its known result.
{"columns": ["SMILES_DATA", "DISPLAY_UNIT", "RESULT_NUMBER"],
 "data": [
  ["COc1cc(C(C)C)c(Oc2cnc(N)nc2N)cc1-c1ccc(C(C)C)cc1", "µM", 2.91],
  ["CC(C)c1cc(OCC2CC2)c(I)cc1Oc1cnc(N)nc1N", "µM", 4.19]
]}

Request: Please give the measured IC50 for this compound: COc1cc(C(C)C)c(Oc2cnc(N)nc2N)cc1I
Response: 176

* * *

system: Staphylococcus aureus; assay: Antibacterial activity against TMP-resistant Staphylococcus aureus BHKS 227 incubated for 24 hrs by CLSI based broth microdilution assay; assay type: functional
Values of MIC strictly less than 2 µg/mL map to Satisfied, and values of at least 2 µg/mL map to Not satisfied.

{"columns": ["COMPOUND", "GROUP_LABEL"],
 "data": [
  ["CCCCOc1cc(C(C)C)c(Oc2cnc(N)nc2N)cc1-c1ccc(C(F)(F)F)cc1", "Not satisfied"],
  ["CCCCOc1cc(C(C)C)c(Oc2cnc(N)nc2N)cc1-c1cc(Cl)cc(Cl)c1", "Not satisfied"],
  ["CCOc1cc(C(C)C)c(Oc2cnc(N)nc2N)cc1I", "Satisfied"],
  ["COc1cc(Cc2cnc(N)nc2N)cc(OC)c1OC [TRIMETHOPRIM]", "Not satisfied"],
  ["CCCCOc1cc(C(C)C)c(Oc2cnc(N)nc2N)cc1-c1ccc(C(C)C)cc1", "Not satisfied"]
]}

Request: # check: MIC < 2 µg/mL for CCC(C)c1cc(OC)c(I)cc1Oc1cnc(N)nc1N (stereo unspecified)
Response: Satisfied

* * *

Target: Dihydrofolate reductase (Mycobacterium tuberculosis)
Sequence (P9WNX1 whole entry): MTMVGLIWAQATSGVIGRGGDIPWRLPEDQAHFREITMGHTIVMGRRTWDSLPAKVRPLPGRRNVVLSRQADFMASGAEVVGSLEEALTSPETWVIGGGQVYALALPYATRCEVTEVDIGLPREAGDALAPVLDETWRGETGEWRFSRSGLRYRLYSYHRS
ASSAY_ENDPOINT: pIC50
For clarity, pIC50 is expressed as the negative log10 of concentration in mol/L.

Request: Recorded pIC50 for COc1cc(C(C)C)c(Oc2cnc(N)nc2N)cc1I , please?
Response: 5.46

* * *

assay: AUC (0 to t) in Sprague-Dawley rat at 5 mg/kg, iv measured for 24 hrs by LC/MS analysis; format: ADME, organism-based; conditions: in vivo
ASSAY_ENDPOINT: AUC(0-t) at 24 h (ng·h/mL)
Write it as a number; the unit ng·h/mL goes unstated.

Request: // query AUC(0-t) at 24 h value for entry CC(C)c1cc(OCC2CC2)c(I)cc1Oc1cnc(N)nc1N
Response: 3240

* * *

system: Dihydrofolate reductase (Staphylococcus aureus); settings: dose 100.0 nM
Documented inhibition across a set of molecules
Quick note: give the figure in %, leave out the unit.

Solved entries (count: 2):
{"columns": ["MOLECULE", "ASSAY_ENDPOINT", "RESULT_NUMBER"],
 "data": [
  ["CC(C)c1cc(OCCc2ccccc2)c(I)cc1Oc1cnc(N)nc1N", "inhibition", 76.4],
  ["CCCCCOc1cc(C(C)C)c(Oc2cnc(N)nc2N)cc1I", "inhibition", 45.8]
]}

Request: Query inhibition on Dihydrofolate reductase (Staphylococcus aureus) for CCCOc1cc(C(C)C)c(Oc2cnc(N)nc2N)cc1I
Response: 43.8

Request: inhibition of CCCC(C)Oc1cc(C(C)C)c(Oc2cnc(N)nc2N)cc1I (stereo unspecified) on Dihydrofolate reductase (Staphylococcus aureus)?
Response: 31.7

Request: Provide the documented inhibition with Dihydrofolate reductase (Staphylococcus aureus) as the system for COc1cc(C(C)C)c(Oc2cnc(NC(C)=O)nc2NC(C)=O)cc1I
Response: 32.6

Request: inhibition, test system Dihydrofolate reductase (Staphylococcus aureus), entry COc1cc(C(C)C)c(Oc2cnc(N)nc2N)cc1-c1cccc(C(F)(F)F)c1
Response: 82.9

Request: inhibition, test system Dihydrofolate reductase (Staphylococcus aureus), entry CCC(C)Oc1cc(C(C)C)c(Oc2cnc(N)nc2N)cc1I (stereo unspecified)
Response: 50.8

Request: Form: Entry = COc1ccc(-c2cc(Oc3cnc(N)nc3N)c(C(C)C)cc2OC)cc1 | System = Dihydrofolate reductase (Staphylococcus aureus) | inhibition = ____
Response: 19.9

* * *

assay: Cmax in Sprague-Dawley rat at 15 mg/kg, po measured for 24 hrs by LC/MS analysis; format: ADME, organism-based; details: in vivo
ASSAY_ENDPOINT: Cmax (ng/mL)
# value in ng/mL; strip the unit string

Request: Requested field: Cmax. Item: CC(C)c1cc(OCC2CC2)c(I)cc1Oc1cnc(N)nc1N
Response: 579

* * *

assay: Cytotoxicity against HEK293 cells assessed as inhibition rate of cell growth at 100 uM incubated for 24 hrs by CCK8 assay relative to control; format: toxicity, cell-based; details: human
ASSAY_ENDPOINT: inhibition at 24 h, 100 µM (%)
# value in %; strip the unit string

{"columns": ["SMILES_DATA", "ASSAY_ENDPOINT", "DISPLAY_UNIT", "RESULT_NUMBER"],
 "data": [
  ["COc1cc(C(C)C)c(Oc2cnc(N)nc2N)cc1-c1ccc(C(C)C)cc1", "inhibition at 24 h, 100 µM", "%", 46.9],
  ["CCCOc1cc(C(C)C)c(Oc2cnc(N)nc2N)cc1I", "inhibition at 24 h, 100 µM", "%", 47.4]
]}

For the next question, use this compound.
Request: Given the compound CC(C)c1cc(OCC2CCCC2)c(I)cc1Oc1cnc(N)nc1N , what is its reported inhibition at 24 h, 100 µM?
Response: 64

* * *

test: Cytotoxicity against HEK293 cells assessed as inhibition rate of cell growth at 100 uM incubated for 24 hrs by CCK8 assay relative to control; format: toxicity, cell-based; details: human
Recorded measurements of inhibition at 24 h, 100 µM, one per entry
The number alone won't do; follow it with the unit.

{"columns": ["SMILES_DATA", "inhibition at 24 h, 100 µM"],
 "data": [
  ["CC(C)c1ccc(-c2cc(Oc3cnc(N)nc3N)c(C(C)C)cc2OCC2CC2)cc1", "19.3%"]
]}

Request: Endpoint output: inhibition at 24 h, 100 µM of COc1cc(C(C)C)c(Oc2cnc(N)nc2N)cc1-c1ccc(Cl)cc1 . Value?
Response: 16.4%

Request: Look up inhibition at 24 h, 100 µM: COc1cc(C(C)C)c(Oc2cnc(N)nc2N)cc1-c1ccc(OC(F)(F)F)cc1
Response: 43.5%

Request: // inhibition at 24 h, 100 µM lookup, key: COc1cc(C(C)C)c(Oc2cnc(N)nc2N)cc1-c1ccc(-c2ccccc2)cc1
Response: 31.5%

Request: For CC(C)c1cc(OCC2CCC2)c(I)cc1Oc1cnc(N)nc1N , what is its reported inhibition at 24 h, 100 µM?
Response: 57.9%

Request: Would you kindly share the measured inhibition at 24 h, 100 µM for COc1cc(C(C)C)c(Oc2cnc(N)nc2N)cc1-c1cc(F)cc(F)c1 ?
Response: 45.2%

Request: Give the measured inhibition at 24 h, 100 µM of CCCCCOc1cc(C(C)C)c(Oc2cnc(N)nc2N)cc1I .
Response: 64.9%

Request: If you can, please state the reported inhibition at 24 h, 100 µM value of COc1cc(C(C)C)c(Oc2cnc(N)nc2N)cc1-c1ccc(C)cc1 .
Response: 2.04%

Request: Given CCCCOc1cc(C(C)C)c(Oc2cnc(N)nc2N)cc1I , state its recorded inhibition at 24 h, 100 µM.
Response: 42.2%

Request: For the compound COc1cc(C(C)C)c(Oc2cnc(N)nc2N)cc1-c1ccccc1 , what inhibition at 24 h, 100 µM is on record?
Response: 49.2%

Request: State the recorded inhibition at 24 h, 100 µM for this entry: COc1cc(C(C)C)c(Oc2cnc(N)nc2N)cc1-c1ccc(C(C)(C)C)cc1
Response: 20.7%

* * *

system: Dihydrofolate reductase (Staphylococcus aureus); conditions: dose 100.0 nM
Returns one of rule met or rule not met; rule met when inhibition is >= 60%.

Here's what some known entries look like.
{"columns": ["COMPOUND", "GROUP_LABEL"],
 "data": [
  ["CCCCOc1cc(C(C)C)c(Oc2cnc(N)nc2N)cc1-c1ccc(C(F)(F)F)cc1", "rule met"],
  ["CC(C)CCOc1cc(C(C)C)c(Oc2cnc(N)nc2N)cc1I", "rule met"],
  ["COc1cc(C(C)C)c(Oc2cnc(N)nc2N)cc1C", "rule met"],
  ["CCCCOc1cc(C(C)C)c(Oc2cnc(N)nc2N)cc1-c1ccc(C(C)C)cc1", "rule met"]
]}

Request: Reported inhibition reaches at least 60% for COc1ccc(Oc2cnc(N)nc2N)cc1-c1ccc(C(F)(F)F)cc1 ?
Response: rule met

Request: Hello, I need to know if CCOc1cc(C(C)C)c(Oc2cnc(N)nc2N)cc1I has measured inhibition not below 60%. Thanks!
Response: rule not met

Request: Is it the case that COc1cc(C(C)C)c(Oc2cnc(N)nc2N)cc1-c1cc(C)cc(C)c1 has inhibition reaching or exceeding 60%?
Response: rule met

Request: Check this compound for inhibition at or above 60%: COc1cc(C(C)C)c(Oc2cnc(N)nc2N)cc1-c1ccc(C(F)(F)F)c(Cl)c1
Response: rule met

Request: // inclusive: inhibition at least 60%? input: COc1cc(OC)cc(-c2cc(Oc3cnc(N)nc3N)c(C(C)C)cc2OC)c1
Response: rule not met

Request: Textbook exercise: given the entry COc1cc(C(C)C)c(Oc2cnc(N)nc2N)cc1-c1ccc(Cl)c(C(F)(F)F)c1 , state whether its inhibition is greater than or equal to 60%.
Response: rule met

Request: Kindly determine if inhibition recorded for CCCCOc1cc(C(C)C)c(Oc2cnc(N)nc2N)cc1I is above or exactly 60%.
Response: rule not met

Request: Given COc1cc(C(C)C)c(Oc2cnc(N)nc2N)cc1-c1ccc(C(C)(C)C)cc1 , state whether its inhibition is at least 60%.
Response: rule not met

Request: For this compound, is measured inhibition 60% or higher? COc1cc(C(C)C)c(Oc2cnc(N)nc2N)cc1-c1cccc(Cl)c1
Response: rule met

Request: Entry COc1cc(C(C)C)c(Oc2cnc(N)nc2N)cc1-c1ccc(C(F)(F)F)cc1 : is its inhibition no less than 60%?
Response: rule met

Request: Given COc1cc(C(C)C)c(Oc2cnc(N)nc2N)cc1-c1ccc(OC(F)(F)F)cc1 , state whether its inhibition is at least 60%.
Response: rule met

Request: Threshold query (inhibition >= 60%) on COc1cc(C(C)C)c(Oc2cnc(N)nc2N)cc1-c1ccncc1
Response: rule not met

Request: Is reported inhibition greater than or equal to 60% here: COc1cc(C(C)C)c(Oc2cnc(N)nc2N)cc1-c1ccc(C(C)C)cc1
Response: rule not met

Request: Is inhibition at least 60%? Consider COc1cc(C(C)C)c(Oc2cnc(N)nc2N)cc1C1CC1
Response: rule not met

Request: Determine whether measured inhibition meets or exceeds 60% for COc1cc(C(C)C)c(Oc2cnc(N)nc2N)cc1-c1cc(F)cc(F)c1
Response: rule met

Request: Is it the case that CCCCOc1cc(C(C)C)c(Oc2cnc(N)nc2N)cc1-c1cc(Cl)cc(Cl)c1 has inhibition reaching or exceeding 60%?
Response: rule met

Request: Check this compound for inhibition at or above 60%: COc1ccc(Oc2cnc(N)nc2N)cc1-c1ccc(OC(F)(F)F)cc1
Response: rule not met

Request: Given the entry COc1cc(C(C)C)c(Oc2cnc(N)nc2N)cc1-c1ccc(C(=O)O)cc1 , answer whether its inhibition meets or surpasses 60%.
Response: rule not met

Request: Is reported inhibition greater than or equal to 60% here: COc1cc(C(C)C)c(Oc2cnc(N)nc2N)cc1-c1ccc(C)cc1
Response: rule not met

Request: Quick check: does CCc1cc(Oc2cnc(N)nc2N)c(C(C)CC)cc1OC (stereo not drawn) have inhibition greater than or equal to 60%?
Response: rule not met

Request: Is inhibition at least 60%? Consider CC(C)c1cc(OCC2CCCC2)c(I)cc1Oc1cnc(N)nc1N
Response: rule met
